Molecular target: T1, human GIPR (human), P48546
T1 chain: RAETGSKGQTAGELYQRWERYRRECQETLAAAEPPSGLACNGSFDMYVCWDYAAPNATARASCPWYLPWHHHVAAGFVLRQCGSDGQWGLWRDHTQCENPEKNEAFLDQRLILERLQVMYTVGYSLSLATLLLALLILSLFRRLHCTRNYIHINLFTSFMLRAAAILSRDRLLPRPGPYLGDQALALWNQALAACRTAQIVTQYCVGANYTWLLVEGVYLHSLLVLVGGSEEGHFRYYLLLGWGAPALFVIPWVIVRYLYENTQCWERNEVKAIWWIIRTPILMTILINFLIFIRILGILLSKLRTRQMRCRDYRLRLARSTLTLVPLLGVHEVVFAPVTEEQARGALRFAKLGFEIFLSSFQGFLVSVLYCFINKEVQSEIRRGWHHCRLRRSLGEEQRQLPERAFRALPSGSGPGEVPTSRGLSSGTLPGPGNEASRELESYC
Test: [125I]GIP displacement, hGIPR VLP
Non-standard residues stand in square brackets, D forms with d. Groups on a side chain read outwards from the residue. Primed or numbered codes have the meaning given here. No end group written: not given here. *: point of attachment. NMeY = CN[C@@H](Cc1ccc(O)cc1)C(=O)O; Tridecanoyl = CCCCCCCCCCCCC(=O)*; Lauroyl = CCCCCCCCCCCC(=O)*; dIva = CC[C@@](C)(N)C(=O)O; Iva = CC[C@](C)(N)C(=O)O; PEG2′ = not defined here; Hexanoyl = CCCCCC(=O)*; Aib = CC(C)(N)C(=O)O
Catalogue of pIC50 readings, one per entry.
// pIC50: -log10(molar conc.)

INSERT INTO assay_data (binder, observed_measurement) VALUES
  ('Y[Aib]EGTFISDYSK([PEG2′-Hexanoyl])ALDRIHQQDFVNWLLAQRPSSGAPPPSR (ends and bridges not checked) [Compound 179]', 8.68),
  ('Y[Aib]EGTFISDYSK([PEG(2)-Lauroyl])ALDRIAQ[Aib]NFVNWLLAQRPSSGAPPPS (ends and bridges not checked) [Compound 204]', 8.59),
  ('Y[Aib]EGTFISDYSK([PEG(2)-Lauroyl])ALDRIAQ[Aib]NFVNWLLAQRPSSGAPPPSR (ends and bridges not checked) [Compound 197]', 8.59),
  ('Y[Aib]EGTVVSLYSI[Aib]LDKQAQ[Aib]EFVKWLLKGK(Pal) (ends and bridges not checked) [Compound 163]', 7.30),
  ('[NMeY][Aib]EGTFISDYSI[dIva]LDRIAQ[Aib]NFVNW[Iva]LAQRPSSGAPPPSR (ends and bridges not checked) [Compound 92]', 8.64),
  ('Y[Aib]EGTVVSLYSI[Aib]LDKQAQ[Aib]EFVKWLLAQKK(Pal) (ends and bridges not checked) [Compound 161]', 7.62);

[ask] Please report the recorded pIC50 for Y[Aib]EGTFISDYSIALDRK([PEG(2)-Pal])HQ[Aib]NFVNW[Iva]LAQRPSSGAPPPS (not fully specified (C-terminus); ends and bridges not checked) [Compound 240] .
[reply] 8.62

[ask] Proceed to Y[Aib]EGTFISDYSK([PEG2′-Tridecanoyl])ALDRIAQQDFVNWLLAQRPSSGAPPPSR (ends and bridges not checked) [Compound 185]
[reply] 7.72

[ask] Proceed to Y[Aib]EGTVVSLYSI[Aib]LDKQAQ[Aib]EFVKWLLAQKK([PEG(2)-Pal]) (ends and bridges not checked) [Compound 160]
[reply] 8.39

Each recorded value in this set is attributed to patent US20180298070A1.
